target: Sodium channel protein type 9 subunit alpha (Homo sapiens, UniProt Q15858); test: In Vitro Assay: 293 cells stably transfected with either Nav 1.7 or with Nav 1.5 were recorded in population patch-clamp mode with the IonWorks® Quattro automated electrophysiology system in accordance with the manufacturer's specifications (Molecular Devices, LLC, Sunnyvale, Calif.). Sodium channel currents were measured in response to a train of depolarizations that induced successively greater inactivation.Cells were held at −110 mV for three seconds (Nav 1.7) or half a second (Nav 1.5) from a holding voltage of −15 mV, then put through a series of 26 pulses of 150 msec duration to −20 mV at a frequency of 5 Hz. Cells were then left unclamped for a period of 3 to 8 minutes while a single concentration of test compound was added. Cells were then reclamped and put through the same voltage protocol. Current at the end of the 26th pulse to −20 mV was subtracted from the peak current evoked by the 26th pulse to −20 mV to correct for leak current.
Sequence (Q15858 whole entry): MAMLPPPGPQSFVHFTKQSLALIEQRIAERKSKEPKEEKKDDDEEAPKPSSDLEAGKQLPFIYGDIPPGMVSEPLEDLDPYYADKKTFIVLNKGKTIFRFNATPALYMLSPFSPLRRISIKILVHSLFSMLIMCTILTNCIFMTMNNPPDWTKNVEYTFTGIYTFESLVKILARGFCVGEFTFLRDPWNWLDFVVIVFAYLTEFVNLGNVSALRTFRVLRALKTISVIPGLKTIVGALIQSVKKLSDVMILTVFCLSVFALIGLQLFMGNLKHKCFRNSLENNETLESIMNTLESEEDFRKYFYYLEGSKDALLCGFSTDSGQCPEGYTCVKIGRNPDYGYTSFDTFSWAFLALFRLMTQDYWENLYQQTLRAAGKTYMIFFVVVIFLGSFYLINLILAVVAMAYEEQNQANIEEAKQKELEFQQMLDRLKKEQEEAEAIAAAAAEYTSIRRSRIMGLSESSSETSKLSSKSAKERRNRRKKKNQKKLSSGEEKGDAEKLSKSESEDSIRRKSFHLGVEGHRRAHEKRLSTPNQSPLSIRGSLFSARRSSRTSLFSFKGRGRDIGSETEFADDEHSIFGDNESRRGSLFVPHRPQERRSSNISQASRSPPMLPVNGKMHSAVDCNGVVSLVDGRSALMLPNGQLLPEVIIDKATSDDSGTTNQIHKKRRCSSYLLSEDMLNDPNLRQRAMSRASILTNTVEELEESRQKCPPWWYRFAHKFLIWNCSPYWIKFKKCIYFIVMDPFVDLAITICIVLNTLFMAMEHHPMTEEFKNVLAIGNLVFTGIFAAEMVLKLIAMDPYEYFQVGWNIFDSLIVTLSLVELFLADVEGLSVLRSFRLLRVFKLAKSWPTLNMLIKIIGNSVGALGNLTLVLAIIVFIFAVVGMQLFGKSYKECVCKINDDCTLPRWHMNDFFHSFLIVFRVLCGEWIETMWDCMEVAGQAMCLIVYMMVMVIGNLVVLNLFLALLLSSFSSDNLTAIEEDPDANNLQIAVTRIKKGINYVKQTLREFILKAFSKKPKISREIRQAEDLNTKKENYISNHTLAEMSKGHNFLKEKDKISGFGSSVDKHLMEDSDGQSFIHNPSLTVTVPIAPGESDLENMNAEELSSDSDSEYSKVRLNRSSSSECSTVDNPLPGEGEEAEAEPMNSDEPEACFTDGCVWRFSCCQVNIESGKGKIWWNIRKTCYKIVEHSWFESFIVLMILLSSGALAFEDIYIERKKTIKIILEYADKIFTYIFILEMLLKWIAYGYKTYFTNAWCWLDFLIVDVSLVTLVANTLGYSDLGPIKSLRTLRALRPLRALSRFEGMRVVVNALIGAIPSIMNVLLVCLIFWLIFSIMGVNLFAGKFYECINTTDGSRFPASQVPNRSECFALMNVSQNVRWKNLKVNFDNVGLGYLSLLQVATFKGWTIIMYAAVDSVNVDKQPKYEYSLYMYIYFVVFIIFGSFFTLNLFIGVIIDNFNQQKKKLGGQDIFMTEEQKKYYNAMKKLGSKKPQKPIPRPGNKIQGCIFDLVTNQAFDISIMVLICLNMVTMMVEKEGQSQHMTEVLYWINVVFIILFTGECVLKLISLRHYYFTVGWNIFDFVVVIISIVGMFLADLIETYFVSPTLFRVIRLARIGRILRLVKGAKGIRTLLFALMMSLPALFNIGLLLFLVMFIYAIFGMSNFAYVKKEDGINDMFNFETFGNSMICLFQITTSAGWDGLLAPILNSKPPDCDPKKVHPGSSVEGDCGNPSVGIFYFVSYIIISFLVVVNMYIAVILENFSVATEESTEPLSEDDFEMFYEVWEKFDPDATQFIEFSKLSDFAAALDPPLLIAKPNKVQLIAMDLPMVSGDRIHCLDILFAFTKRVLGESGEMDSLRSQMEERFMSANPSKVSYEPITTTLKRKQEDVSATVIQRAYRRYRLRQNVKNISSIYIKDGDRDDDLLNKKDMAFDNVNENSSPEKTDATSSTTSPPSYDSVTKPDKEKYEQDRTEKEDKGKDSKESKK
valueKind: pIC50
// returns pIC50 (minus log10 of molar concentration), number only

Check out these entries, answers already filled in.
In: # return recorded pIC50 for entry `Cn1cc(-c2ccc(Br)cc2C(F)(F)F)c2ccc(S(=O)(=O)Nc3ncns3)cc21`
Out: 5.45

In: Please report pIC50 for the following compound: `Cc1noc(C)c1-c1cn(C)c2cc(S(=O)(=O)Nc3ncns3)ccc12`
Out: 5.58

In: Supply reported pIC50 belonging to this compound: `COc1cc(OC)cc(-c2cn(C)c3cc(S(=O)(=O)Nc4ncns4)ccc23)c1`
Out: 5.22

In: Return reported pIC50. Input compound: `COc1ccc(-c2cn(C)c3cc(S(=O)(=O)Nc4ncns4)ccc23)c2ccccc12`
Out: 5.58

In: Assign pIC50 to the following record: `Cn1cc(-c2cccc(C#N)c2)c2ccc(S(=O)(=O)Nc3ncns3)cc21`
Out: 5.70

Further cases:
In: Please indicate pIC50 recorded for `COc1ccc(-c2cn(C)c3cc(S(=O)(=O)Nc4ncns4)ccc23)cc1C(F)(F)F`
Out: 5.35

In: Given `Cn1cc(-c2ccc(F)c(C#N)c2)c2ccc(S(=O)(=O)Nc3ncns3)cc21` , respond with its pIC50.
Out: 5.89

In: Give pIC50 for `Cn1cc(-c2cccc3ccccc23)c2ccc(S(=O)(=O)Nc3ncns3)cc21`
Out: 6.51

In: Assign pIC50 to the following record: `Cn1cc(-c2ccccc2C(F)(F)F)c2ccc(S(=O)(=O)Nc3ncns3)cc21`
Out: 5.22

In: Specify measured pIC50 for `Cn1cc(-c2cccc3ncccc23)c2ccc(S(=O)(=O)Nc3ncns3)cc21` .
Out: 6.18

In: Find the measured pIC50 of `Cn1nccc1-c1cn(C)c2cc(S(=O)(=O)Nc3ncns3)ccc12` and report it.
Out: 5.15

In: Name the recorded pIC50 of the compound listed here: `COc1ccc(-c2cn(C)c3cc(S(=O)(=O)Nc4ncns4)ccc23)c(Cl)c1`
Out: 5.64

In: Indicate the recorded pIC50 value for this compound: `Cn1cc(-c2cccc(S(C)(=O)=O)c2)c2ccc(S(=O)(=O)Nc3ncns3)cc21`
Out: 6.28

In: Indicate its recorded pIC50; the compound in question is `CN(C)c1cccc(-c2cn(C)c3cc(S(=O)(=O)Nc4ncns4)ccc23)c1`
Out: 5.38
